B1: TPR 5TU (parent)
chain: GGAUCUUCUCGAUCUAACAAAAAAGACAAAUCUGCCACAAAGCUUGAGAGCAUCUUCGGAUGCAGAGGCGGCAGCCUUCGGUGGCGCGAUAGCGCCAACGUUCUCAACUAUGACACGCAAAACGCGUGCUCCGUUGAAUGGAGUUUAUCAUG

# Variants of: B1
# EXPERIMENTAL_PROTOCOL: polymerase ribozyme fitness, log enrichment relative to wild type (log ratio); higher = more active; in vitro selection for triplet polymerase activity
This sample holds only a part of the variants without activity.
Respond with rule met for polymerase ribozyme fitness (log ratio) values of -0.04 and above, rule not met for values below.

Example results:
[[record]]
mutation = "A20U A30C A41G G74U C93U"
assigned_class = "rule not met"

[[record]]
mutation = "A20C A22U G58A U77C C96G"
assigned_class = "rule not met"


Req: polymerase ribozyme fitness (log ratio) >= -0.04 for A60G G117A ?
Resp: rule met

Req: Next entry: A17U G58C C95U C99A
Resp: rule not met

Req: Do the same for A41U G68C A91U U102C please
Resp: rule not met

Req: Try this variant too: U31C A41G U53A U55A
Resp: rule met

Req: Repeat with C57U C85G
Resp: rule not met

Req: Consider next the variant A40U U53A in the same way.
Resp: rule not met

Req: Moving on to the next variant: C10G A21U A22U U55A G59C A142C
Resp: rule not met

Req: And for A29G C93A A122G G124A ?
Resp: rule not met
